Test system: Escherichia coli TOP10
Experiment: shrunken log2 fold change of peptide-encoding DNA abundance (4.5 h post-induction vs induction); higher = less antimicrobial activity (less host growth inhibition)
Conditions: time post-induction: 4.5 h; library: site-saturation at positions 5, 18, 19, 20
MEASURED ENDPOINT: shrunken log2 fold change

Give me shrunken log2 fold change for each of these sequences, listed below.
1. RRIRGRPPRLPRPRPRPFGHPRP
2. RRIRQRPPRLPRPRPRPVRVPRP
3. RRIRPRPPRLPRPRPRPCTFPRP

1: -0.164; 2: 0.686; 3: -0.00278

----------
System: Escherichia coli TOP10
Assay: shrunken log2 fold change of peptide-encoding DNA abundance (4.5 h post-induction vs induction); higher = less antimicrobial activity (less host growth inhibition)
Details: time post-induction: 4.5 h; library: site-saturation at positions 5, 18, 19, 20
Binary classification by shrunken log2 fold change, with 0.7 as an inclusive lower bound for y; all other cases are n.

Solved entries:
1) RRIRWRPPRLPRPRPRPQDAPRP
n
2) RRIRKRPPRLPRPRPRPELKPRP
y
3) RRIRVRPPRLPRPRPRPPYCPRP
n
4) RRIRKRPPRLPRPRPRPACVPRP
y

Next sequence, please.
Check if shrunken log2 fold change >= 0.7 (inclusive). Item: `RRIRTRPPRLPRPRPRPCSEPRP`
n

----------
Tested on: Escherichia coli TOP10
Experiment: shrunken log2 fold change of peptide-encoding DNA abundance (4.5 h post-induction vs induction); higher = less antimicrobial activity (less host growth inhibition)
Settings: time post-induction: 4.5 h; library: site-saturation at positions 5, 18, 19, 20
Would you kindly list shrunken log2 fold change for each of these sequences?
Give bare numbers.

1) RRIRARPPRLPRPRPRPFIYPRP
-0.264
2) RRIRERPPRLPRPRPRPCKQPRP
-0.086
3) RRIRRRPPRLPRPRPRPDHAPRP
0.0467
4) RRIRHRPPRLPRPRPRPNSEPRP
-0.795
5) RRIRQRPPRLPRPRPRPISFPRP
-0.0842
6) RRIRKRPPRLPRPRPRPQMKPRP
-0.0666
7) RRIRHRPPRLPRPRPRPQGEPRP
-0.171
8) RRIRARPPRLPRPRPRPPIGPRP
0.287
9) RRIRDRPPRLPRPRPRPHFEPRP
0.163
10) RRIRKRPPRLPRPRPRPEAVPRP
0.15

Give shrunken log2 fold change for each of the items listed below.
1. RRIRERPPRLPRPRPRPMPHPRP
2. RRIRIRPPRLPRPRPRPALQPRP
3. RRIRMRPPRLPRPRPRPFCIPRP
4. RRIRIRPPRLPRPRPRPIVLPRP

-0.083
-0.011
-0.288
-0.181

----------
Tested on: Escherichia coli TOP10
Assay: shrunken log2 fold change of peptide-encoding DNA abundance (4.5 h post-induction vs induction); higher = less antimicrobial activity (less host growth inhibition)
Settings: time post-induction: 4.5 h; library: site-saturation at positions 5, 18, 19, 20
MEASURED ENDPOINT: shrunken log2 fold change
Answers are plain numbers.

1. RRIRERPPRLPRPRPRPNWCPRP
-0.0117
2. RRIRIRPPRLPRPRPRPHVPPRP
-0.00519
3. RRIRFRPPRLPRPRPRPNQHPRP
-0.275
4. RRIRSRPPRLPRPRPRPADSPRP
-0.176
5. RRIRMRPPRLPRPRPRPSALPRP
0.105
6. RRIRRRPPRLPRPRPRPPACPRP
0.619

Batch request: shrunken log2 fold change for each of the following sequences.
1. RRIRNRPPRLPRPRPRPFQWPRP
2. RRIRHRPPRLPRPRPRPFHGPRP

1: -0.212; 2: -0.121

Hi team, please reply with shrunken log2 fold change for each item in this list.
1. RRIRYRPPRLPRPRPRPLMMPRP
2. RRIRLRPPRLPRPRPRPTEEPRP
3. RRIRDRPPRLPRPRPRPIQFPRP
4. RRIRWRPPRLPRPRPRPQTIPRP
5. RRIRQRPPRLPRPRPRPMHMPRP
6. RRIRTRPPRLPRPRPRPGQIPRP
7. RRIRKRPPRLPRPRPRPCAPPRP
8. RRIRVRPPRLPRPRPRPMFYPRP

[-0.692, -0.0651, -0.177, 0.106, -0.369, 0.0034, 0.436, -0.725]

Give shrunken log2 fold change; test system Escherichia coli TOP10; sequence `RRIRWRPPRLPRPRPRPEECPRP`
0.158

----------
Tested on: Escherichia coli TOP10
Assay: shrunken log2 fold change of peptide-encoding DNA abundance (4.5 h post-induction vs induction); higher = less antimicrobial activity (less host growth inhibition)
Conditions: time post-induction: 4.5 h; library: site-saturation at positions 5, 18, 19, 20
Decision: shrunken log2 fold change >= 0.04 yields Y, all other cases yield N.

A selection of reference data follows.
1. RRIRNRPPRLPRPRPRPDYWPRP
N
2. RRIRPRPPRLPRPRPRPYGIPRP
N
3. RRIRGRPPRLPRPRPRPGQQPRP
N

Dear colleague, could you confirm whether `RRIRQRPPRLPRPRPRPRAFPRP` has shrunken log2 fold change at or above 0.04?
Y

----------
I'd be grateful if you could share measured shrunken log2 fold change for these entries.
Tested on: Escherichia coli TOP10
Assay: shrunken log2 fold change of peptide-encoding DNA abundance (4.5 h post-induction vs induction); higher = less antimicrobial activity (less host growth inhibition)
Settings: time post-induction: 4.5 h; library: site-saturation at positions 5, 18, 19, 20
Answers are plain numbers.

Some sequences with known shrunken log2 fold change results, for comparison:
1. RRIRYRPPRLPRPRPRPRDYPRP
-1.39
2. RRIRLRPPRLPRPRPRPYWHPRP
-0.61
3. RRIRIRPPRLPRPRPRPMVPPRP
0.0231
4. RRIRSRPPRLPRPRPRPARGPRP
0.574
5. RRIRGRPPRLPRPRPRPRTLPRP
0.477
6. RRIRERPPRLPRPRPRPSNRPRP
-0.209
7. RRIRIRPPRLPRPRPRPIYWPRP
-0.105
8. RRIRRRPPRLPRPRPRPASMPRP
0.0911
9. RRIRGRPPRLPRPRPRPGVGPRP
1.11
10. RRIRFRPPRLPRPRPRPTLSPRP
0.0323

Would you mind giving shrunken log2 fold change for every sequence in the list below?
1. RRIRMRPPRLPRPRPRPWPMPRP
2. RRIRYRPPRLPRPRPRPVWIPRP
3. RRIRTRPPRLPRPRPRPTCLPRP
4. RRIRSRPPRLPRPRPRPGTTPRP
5. RRIRHRPPRLPRPRPRPRHTPRP
6. RRIRWRPPRLPRPRPRPMPIPRP
7. RRIRWRPPRLPRPRPRPYGDPRP
8. RRIRCRPPRLPRPRPRPPYNPRP

1: 0.304; 2: -1.23; 3: -0.216; 4: 0.132; 5: -0.0794; 6: 0.0953; 7: -0.113; 8: -0.618

Hey, quick one: what's shrunken log2 fold change for each of these?
1. RRIRFRPPRLPRPRPRPEFLPRP
2. RRIRSRPPRLPRPRPRPDMHPRP
3. RRIRWRPPRLPRPRPRPTPKPRP
4. RRIRHRPPRLPRPRPRPWVAPRP
5. RRIRWRPPRLPRPRPRPWHLPRP
6. RRIRKRPPRLPRPRPRPNDSPRP

1. 0.0354
2. -0.118
3. 0.627
4. -0.0296
5. -0.00636
6. -0.042

Batch request: shrunken log2 fold change per item, same order as input.
1. RRIRGRPPRLPRPRPRPQGAPRP
2. RRIRARPPRLPRPRPRPVSCPRP
3. RRIRSRPPRLPRPRPRPHGKPRP
4. RRIRGRPPRLPRPRPRPYVMPRP

[0.807, 0.473, -0.18, -0.0513]

Report shrunken log2 fold change for every entry below.
1. RRIRIRPPRLPRPRPRPCKRPRP
2. RRIRPRPPRLPRPRPRPCFEPRP

1: 0.0279; 2: 0.0232

----------
System: Escherichia coli TOP10
Test: shrunken log2 fold change of peptide-encoding DNA abundance (4.5 h post-induction vs induction); higher = less antimicrobial activity (less host growth inhibition)
Settings: time post-induction: 4.5 h; library: site-saturation at positions 5, 18, 19, 20
Task for the reader: assign each of the following sequences its reported shrunken log2 fold change.
One number for each entry.

# batch size: 4; output shrunken log2 fold change per entry
1. RRIRTRPPRLPRPRPRPVSYPRP
2. RRIRVRPPRLPRPRPRPKDWPRP
3. RRIRIRPPRLPRPRPRPHHTPRP
4. RRIRCRPPRLPRPRPRPLQDPRP

1: -0.242; 2: 0.0589; 3: -0.677; 4: 0.0354

----------
Test system: Escherichia coli TOP10;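 also: peptides expressed intracellularly from a pBAD plasmid library in pooled LB shake-flask culture, induced with 0.3% L-arabinose, DNA abundance read by NGS, three biological replicates, DESeq2 with apeglm shrinkage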
Test: shrunken log2 fold change of peptide-encoding DNA abundance (4.5 h post-induction vs induction); higher = less antimicrobial activity (less host growth inhibition)
Conditions: time post-induction: 4.5 h; library: site-saturation at positions 5, 18, 19, 20
MEASURED ENDPOINT: shrunken log2 fold change

1. RRIRWRPPRLPRPRPRPWQQPRP
-0.01
2. RRIRGRPPRLPRPRPRPEQNPRP
1.31
3. RRIRGRPPRLPRPRPRPFWEPRP
0.577
4. RRIRERPPRLPRPRPRPFVCPRP
-0.582

Quick batch: shrunken log2 fold change for everything below.
1. RRIRERPPRLPRPRPRPMVSPRP
2. RRIRQRPPRLPRPRPRPHYNPRP
3. RRIRRRPPRLPRPRPRPFQCPRP
4. RRIRHRPPRLPRPRPRPEVYPRP

[-0.0769, -1.22, -0.00197, -0.0062]

Hi, could you look up shrunken log2 fold change for each item in my list?
1. RRIRCRPPRLPRPRPRPILAPRP
2. RRIRQRPPRLPRPRPRPWTFPRP

1: 0.127; 2: -0.0125

Please report shrunken log2 fold change for every entry that follows.
1. RRIRMRPPRLPRPRPRPGGTPRP
2. RRIRGRPPRLPRPRPRPCFRPRP

0.722
0.0644
